- TARGET_UNDER_TEST: Citron Rho-interacting kinase (Homo sapiens, UniProt O14578)
- Sequence (O14578 whole entry): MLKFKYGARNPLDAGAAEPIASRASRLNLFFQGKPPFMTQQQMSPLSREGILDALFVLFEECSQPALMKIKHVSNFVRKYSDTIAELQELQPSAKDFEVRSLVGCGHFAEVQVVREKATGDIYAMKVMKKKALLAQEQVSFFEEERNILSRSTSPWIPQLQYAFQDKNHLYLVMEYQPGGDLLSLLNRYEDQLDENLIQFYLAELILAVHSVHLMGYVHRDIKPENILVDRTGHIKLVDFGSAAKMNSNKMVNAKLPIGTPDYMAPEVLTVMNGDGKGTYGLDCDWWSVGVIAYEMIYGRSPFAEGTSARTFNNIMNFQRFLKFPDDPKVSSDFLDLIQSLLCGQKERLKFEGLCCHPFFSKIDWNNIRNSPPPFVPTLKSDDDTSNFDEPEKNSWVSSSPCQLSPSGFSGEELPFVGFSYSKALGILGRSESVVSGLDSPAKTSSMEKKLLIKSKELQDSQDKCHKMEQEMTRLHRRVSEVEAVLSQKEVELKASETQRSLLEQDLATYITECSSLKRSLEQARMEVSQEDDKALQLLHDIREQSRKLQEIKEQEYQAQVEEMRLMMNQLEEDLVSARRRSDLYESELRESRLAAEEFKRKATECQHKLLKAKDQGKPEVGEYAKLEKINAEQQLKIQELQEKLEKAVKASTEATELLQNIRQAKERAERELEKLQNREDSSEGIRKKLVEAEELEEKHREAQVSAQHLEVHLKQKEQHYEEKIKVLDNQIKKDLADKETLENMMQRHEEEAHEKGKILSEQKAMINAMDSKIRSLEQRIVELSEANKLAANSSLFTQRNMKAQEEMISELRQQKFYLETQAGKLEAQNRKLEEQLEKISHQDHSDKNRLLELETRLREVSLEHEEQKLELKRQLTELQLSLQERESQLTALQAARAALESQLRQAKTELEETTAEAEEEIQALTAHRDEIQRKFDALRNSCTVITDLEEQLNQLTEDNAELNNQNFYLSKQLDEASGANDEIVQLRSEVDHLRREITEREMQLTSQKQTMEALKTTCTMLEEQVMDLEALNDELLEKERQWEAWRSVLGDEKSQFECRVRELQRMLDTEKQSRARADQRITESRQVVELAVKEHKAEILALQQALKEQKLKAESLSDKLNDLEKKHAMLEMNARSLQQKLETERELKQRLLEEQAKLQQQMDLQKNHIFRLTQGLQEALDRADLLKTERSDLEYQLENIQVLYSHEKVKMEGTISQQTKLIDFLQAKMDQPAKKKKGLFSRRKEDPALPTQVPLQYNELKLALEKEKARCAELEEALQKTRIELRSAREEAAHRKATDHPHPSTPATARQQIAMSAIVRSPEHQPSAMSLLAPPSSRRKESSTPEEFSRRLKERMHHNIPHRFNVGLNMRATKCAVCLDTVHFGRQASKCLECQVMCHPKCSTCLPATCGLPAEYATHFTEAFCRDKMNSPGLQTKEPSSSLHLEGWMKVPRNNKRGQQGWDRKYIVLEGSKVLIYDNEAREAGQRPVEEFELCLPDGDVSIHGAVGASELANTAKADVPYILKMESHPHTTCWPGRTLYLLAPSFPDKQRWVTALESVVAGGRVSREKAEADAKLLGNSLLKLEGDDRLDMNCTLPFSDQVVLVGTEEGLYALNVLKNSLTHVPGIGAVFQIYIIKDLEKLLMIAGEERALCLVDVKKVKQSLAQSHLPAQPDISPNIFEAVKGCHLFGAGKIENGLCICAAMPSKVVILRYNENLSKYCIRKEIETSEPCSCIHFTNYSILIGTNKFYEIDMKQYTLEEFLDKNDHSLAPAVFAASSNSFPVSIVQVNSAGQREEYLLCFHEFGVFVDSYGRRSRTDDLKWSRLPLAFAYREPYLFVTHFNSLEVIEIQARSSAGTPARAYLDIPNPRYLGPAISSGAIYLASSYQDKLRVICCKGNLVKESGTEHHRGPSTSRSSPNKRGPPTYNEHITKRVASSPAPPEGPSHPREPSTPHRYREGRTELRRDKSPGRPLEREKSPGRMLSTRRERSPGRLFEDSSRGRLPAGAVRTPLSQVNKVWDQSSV
- ASSAY_PROTOCOL: Competitive binding affinity to CIT (unknown origin) at 10 uM in presence of ATP relative to control
QUANTITY_NAME: inhibition (%)

O[C@H]1CC[C@H](Nc2nccc(-n3ccc4ccccc43)n2)CC1
79
O[C@H]1CC[C@H](Nc2nccc(-n3ncc4ccccc43)n2)CC1
75
O[C@H]1CC[C@H](Nc2nccc(-n3nnc4ccccc43)n2)CC1
98

* * *

- ASSAY_PROTOCOL: Intrinsic clearance in rat liver microsomes measured per mg of protein
- Type: ADME, Microsome
- MEASUREMENT_PARAMETERS: read-out: CLH
QUANTITY_NAME: microsomal CLint (µL/min/mg)
Report the value in µL/min/mg with no unit label.

*Q* Given the compound `CS(=O)(=O)CCCOc1cccc2c1ccn2-c1ccnc(N[C@H]2CC[C@H](C(=O)N3CCC(O)CC3)CC2)n1` , what is its reported microsomal CLint?
*A* 52

* * *

- TARGET_UNDER_TEST: Serine/threonine-protein kinase PAK 5 (Homo sapiens)
- ASSAY_PROTOCOL: Competitive binding affinity to PAK7/PAK5 (unknown origin) at 10 uM in presence of ATP relative to control
QUANTITY_NAME: inhibition

*Q* Given the molecule `O[C@H]1CC[C@H](Nc2nccc(-n3nnc4ccccc43)n2)CC1` , what is its reported inhibition?
*A* < 50%

*Q* Next molecule up: `O=C([C@H]1CC[C@H](Nc2nccc(-n3nnc4ccccc43)n2)CC1)N1CCOCC1`
*A* < 50%

*Q* Next molecule up: `O[C@H]1CC[C@H](Nc2nccc(-n3ncc4ccccc43)n2)CC1`
*A* < 50%

*Q* Next molecule up: `O[C@H]1CC[C@H](Nc2nccc(-c3n[nH]c4ccccc34)n2)CC1`
*A* 86%

*Q* Next molecule up: `N[C@H]1CC[C@H](Nc2nccc(-n3nnc4ccccc43)n2)CC1`
*A* < 50%

*Q* Next molecule up: `O[C@H]1CC[C@H](Nc2nccc(-n3ccc4ccccc43)n2)CC1`
*A* < 50%

* * *

- TARGET_UNDER_TEST: Serine/threonine-protein kinase PAK 4 (Homo sapiens)
- ASSAY_PROTOCOL: Competitive binding affinity to PAK4 (unknown origin) at 10 uM in presence of ATP relative to control
// reported inhibition per item

O[C@H]1CC[C@H](Nc2nccc(-c3n[nH]c4ccccc34)n2)CC1
92%
O[C@H]1CC[C@H](Nc2nccc(-n3ncc4ccccc43)n2)CC1
< 50%
N[C@H]1CC[C@H](Nc2nccc(-n3nnc4ccccc43)n2)CC1
< 50%
O[C@H]1CC[C@H](Nc2nccc(-n3ccc4ccccc43)n2)CC1
< 50%
O[C@H]1CC[C@H](Nc2nccc(-n3nnc4ccccc43)n2)CC1
< 50%

Pending compound:
*Q* Given the compound `O=C([C@H]1CC[C@H](Nc2nccc(-n3nnc4ccccc43)n2)CC1)N1CCOCC1` , what is its reported inhibition?
*A* < 50%

* * *

// reported inhibition per item
- TARGET_UNDER_TEST: Serine/threonine-protein kinase 10 (Homo sapiens) (UniProt O94804)
- Sequence (O94804 whole entry, looked up): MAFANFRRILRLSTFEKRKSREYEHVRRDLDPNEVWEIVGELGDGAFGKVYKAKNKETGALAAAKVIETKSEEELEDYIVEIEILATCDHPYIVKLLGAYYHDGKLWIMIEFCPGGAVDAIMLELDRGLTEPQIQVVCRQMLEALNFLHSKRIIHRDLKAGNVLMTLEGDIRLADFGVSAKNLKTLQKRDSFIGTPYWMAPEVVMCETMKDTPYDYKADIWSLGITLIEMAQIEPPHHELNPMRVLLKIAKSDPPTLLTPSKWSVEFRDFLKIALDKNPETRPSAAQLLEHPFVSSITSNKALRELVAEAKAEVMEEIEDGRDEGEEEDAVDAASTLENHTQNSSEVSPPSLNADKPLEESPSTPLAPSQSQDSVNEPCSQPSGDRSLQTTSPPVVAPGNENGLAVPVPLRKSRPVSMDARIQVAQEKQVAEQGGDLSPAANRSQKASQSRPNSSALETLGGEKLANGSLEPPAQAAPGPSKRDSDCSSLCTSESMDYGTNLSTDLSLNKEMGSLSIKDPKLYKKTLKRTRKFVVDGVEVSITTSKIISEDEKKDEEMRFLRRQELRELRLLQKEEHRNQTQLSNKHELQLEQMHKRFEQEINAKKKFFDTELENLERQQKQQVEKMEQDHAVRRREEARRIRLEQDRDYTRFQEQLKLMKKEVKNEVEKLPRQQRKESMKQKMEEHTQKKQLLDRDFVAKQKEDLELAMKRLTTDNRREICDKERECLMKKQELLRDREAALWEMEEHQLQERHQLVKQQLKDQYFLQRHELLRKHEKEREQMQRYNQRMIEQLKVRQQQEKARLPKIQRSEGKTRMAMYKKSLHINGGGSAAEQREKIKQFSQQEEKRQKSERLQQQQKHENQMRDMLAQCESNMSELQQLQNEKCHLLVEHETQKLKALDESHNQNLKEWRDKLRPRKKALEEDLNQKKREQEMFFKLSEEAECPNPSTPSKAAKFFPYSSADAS
- ASSAY_PROTOCOL: Competitive binding affinity to LOK (unknown origin) at 10 uM in presence of ATP relative to control

O[C@H]1CC[C@H](Nc2nccc(-n3ncc4ccccc43)n2)CC1
< 50%
O[C@H]1CC[C@H](Nc2nccc(-n3nnc4ccccc43)n2)CC1
< 50%
O[C@H]1CC[C@H](Nc2nccc(-c3n[nH]c4ccccc34)n2)CC1
88%

Pending compound:
*Q* Any idea what inhibition came out for `O[C@H]1CC[C@H](Nc2nccc(-n3ccc4ccccc43)n2)CC1` on Serine/threonine-protein kinase 10 (Homo sapiens) (UniProt O94804)?
*A* < 50%

* * *

- ASSAY_PROTOCOL: Intrinsic clearance in human liver microsomes measured per mg of protein
- Type: ADME, Microsome
- MEASUREMENT_PARAMETERS: read-out: CLH
QUANTITY_NAME: microsomal CLint (µL/min/mg)
Report the value in µL/min/mg with no unit label.

*Q* Given the compound `CS(=O)(=O)CCCOc1cccc2c1ccn2-c1ccnc(N[C@H]2CC[C@H](C(=O)N3CCC(O)CC3)CC2)n1` , what is its reported microsomal CLint?
*A* 30

* * *

- System: Receptor-type tyrosine-protein kinase FLT3 (Homo sapiens), P36888 [D835Y]
- Sequence (whole entry): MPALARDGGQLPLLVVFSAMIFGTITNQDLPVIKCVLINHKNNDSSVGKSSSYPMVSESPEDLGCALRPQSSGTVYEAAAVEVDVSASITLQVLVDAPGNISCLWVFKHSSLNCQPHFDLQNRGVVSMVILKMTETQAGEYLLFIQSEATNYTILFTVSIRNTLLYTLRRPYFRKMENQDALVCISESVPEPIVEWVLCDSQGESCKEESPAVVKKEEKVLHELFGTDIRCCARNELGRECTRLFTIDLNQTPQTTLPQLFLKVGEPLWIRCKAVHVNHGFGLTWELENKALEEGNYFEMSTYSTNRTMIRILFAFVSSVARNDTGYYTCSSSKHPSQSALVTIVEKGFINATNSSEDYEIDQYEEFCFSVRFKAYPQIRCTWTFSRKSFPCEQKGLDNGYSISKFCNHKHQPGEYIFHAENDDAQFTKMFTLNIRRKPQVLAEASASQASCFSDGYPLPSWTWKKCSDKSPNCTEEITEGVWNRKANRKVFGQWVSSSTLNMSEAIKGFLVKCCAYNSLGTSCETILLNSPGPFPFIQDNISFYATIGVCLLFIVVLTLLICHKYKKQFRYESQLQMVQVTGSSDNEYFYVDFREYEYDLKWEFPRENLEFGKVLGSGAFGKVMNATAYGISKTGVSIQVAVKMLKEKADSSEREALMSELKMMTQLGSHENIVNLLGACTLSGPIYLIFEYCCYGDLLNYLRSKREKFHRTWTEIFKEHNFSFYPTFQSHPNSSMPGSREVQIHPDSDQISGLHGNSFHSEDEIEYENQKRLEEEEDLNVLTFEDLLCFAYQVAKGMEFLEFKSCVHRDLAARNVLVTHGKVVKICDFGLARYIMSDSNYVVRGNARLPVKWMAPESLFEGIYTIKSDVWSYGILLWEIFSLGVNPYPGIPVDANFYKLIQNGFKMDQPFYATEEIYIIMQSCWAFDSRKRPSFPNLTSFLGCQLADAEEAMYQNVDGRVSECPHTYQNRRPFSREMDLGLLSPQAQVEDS
- ASSAY_PROTOCOL: Competitive binding affinity to FLT3 D835Y mutant (unknown origin) at 10 uM in presence of ATP relative to control
QUANTITY_NAME: inhibition (%)

O[C@H]1CC[C@H](Nc2nccc(-c3n[nH]c4ccccc34)n2)CC1
100
O[C@H]1CC[C@H](Nc2nccc(-n3ncc4ccccc43)n2)CC1
100
O[C@H]1CC[C@H](Nc2nccc(-n3nnc4ccccc43)n2)CC1
99

* * *

- TARGET_UNDER_TEST: Mitogen-activated protein kinase kinase kinase kinase 1 (Homo sapiens)
- ASSAY_PROTOCOL: Competitive binding affinity to MAP4K1 (unknown origin) at 10 uM in presence of ATP relative to control
// reported inhibition per item

Here are 3 molecules together with their reported answers.
O[C@H]1CC[C@H](Nc2nccc(-c3n[nH]c4ccccc34)n2)CC1
97%
O[C@H]1CC[C@H](Nc2nccc(-n3ccc4ccccc43)n2)CC1
< 50%
O[C@H]1CC[C@H](Nc2nccc(-n3nnc4ccccc43)n2)CC1
< 50%

Pending molecule:
*Q* Any idea what inhibition came out for `O[C@H]1CC[C@H](Nc2nccc(-n3ncc4ccccc43)n2)CC1` on Mitogen-activated protein kinase kinase kinase kinase 1 (Homo sapiens)?
*A* < 50%

* * *

- TARGET_UNDER_TEST: Myosin light chain kinase family member 4 (Homo sapiens)
- ASSAY_PROTOCOL: Competitive binding affinity to SgK085 (unknown origin) at 10 uM in presence of ATP relative to control
QUANTITY_NAME: inhibition (%)

O[C@H]1CC[C@H](Nc2nccc(-n3ncc4ccccc43)n2)CC1
96
O[C@H]1CC[C@H](Nc2nccc(-n3ccc4ccccc43)n2)CC1
98
O[C@H]1CC[C@H](Nc2nccc(-n3nnc4ccccc43)n2)CC1
97

* * *

- TARGET_UNDER_TEST: Cyclin-dependent kinase 11A (Homo sapiens) (UniProt Q9UQ88)
- Sequence (Q9UQ88 whole entry): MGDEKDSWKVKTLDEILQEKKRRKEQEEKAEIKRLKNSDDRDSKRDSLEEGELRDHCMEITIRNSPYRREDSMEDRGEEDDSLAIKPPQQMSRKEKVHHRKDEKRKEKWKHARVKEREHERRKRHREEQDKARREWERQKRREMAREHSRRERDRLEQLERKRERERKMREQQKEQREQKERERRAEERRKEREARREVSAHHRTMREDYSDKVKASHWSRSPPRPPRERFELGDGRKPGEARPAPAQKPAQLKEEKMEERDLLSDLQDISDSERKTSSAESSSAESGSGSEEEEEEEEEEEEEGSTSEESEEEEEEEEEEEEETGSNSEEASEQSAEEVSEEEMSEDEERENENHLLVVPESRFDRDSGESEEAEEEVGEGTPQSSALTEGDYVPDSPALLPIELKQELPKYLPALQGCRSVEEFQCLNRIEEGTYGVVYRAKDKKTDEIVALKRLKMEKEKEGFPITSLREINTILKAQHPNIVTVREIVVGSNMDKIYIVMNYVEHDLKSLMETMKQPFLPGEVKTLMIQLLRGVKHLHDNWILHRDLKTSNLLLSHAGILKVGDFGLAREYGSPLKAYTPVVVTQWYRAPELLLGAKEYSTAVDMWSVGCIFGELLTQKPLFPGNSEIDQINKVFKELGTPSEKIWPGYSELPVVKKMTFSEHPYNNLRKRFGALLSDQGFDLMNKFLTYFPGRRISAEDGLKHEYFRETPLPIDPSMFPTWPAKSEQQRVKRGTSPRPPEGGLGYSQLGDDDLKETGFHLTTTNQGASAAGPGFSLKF
- ASSAY_PROTOCOL: Competitive binding affinity to CDC2L2 (unknown origin) at 10 uM in presence of ATP relative to control
QUANTITY_NAME: inhibition (%)

O[C@H]1CC[C@H](Nc2nccc(-n3nnc4ccccc43)n2)CC1
100
O[C@H]1CC[C@H](Nc2nccc(-n3ccc4ccccc43)n2)CC1
95
O[C@H]1CC[C@H](Nc2nccc(-n3ncc4ccccc43)n2)CC1
97

* * *

- TARGET_UNDER_TEST: Casein kinase II subunit alpha (Homo sapiens)
- ASSAY_PROTOCOL: Competitive binding affinity to CSNK2A1 (unknown origin) at 10 uM in presence of ATP relative to control
QUANTITY_NAME: inhibition (%)

O[C@H]1CC[C@H](Nc2nccc(-c3n[nH]c4ccccc34)n2)CC1
98
N[C@H]1CC[C@H](Nc2nccc(-n3nnc4ccccc43)n2)CC1
99
O[C@H]1CC[C@H](Nc2nccc(-n3nnc4ccccc43)n2)CC1
80
O[C@H]1CC[C@H](Nc2nccc(-n3ncc4ccccc43)n2)CC1
87
O=C([C@H]1CC[C@H](Nc2nccc(-n3nnc4ccccc43)n2)CC1)N1CCOCC1
71

Source listed as ChEMBL document CHEMBL2424622.
